Tested on: Caco-2 monolayers
test summary: in vitro
recorded conditions: human, Caco-2
*1 amine or outer side, *2 acyl side, *3 side chain or, on linkers, in order; H or OH if unused. Where a SMILES comes first, the peptide text is derived from it. [ ]: non-standard residue; d: D form. X2 = C#CCn1cc(C[C@@H](C(=O)[*:2])N(C)[*:1])c2ccccc21; NMeLeu(5-OH,4R) = CN[C@@H](C[C@@H](C)CO)C(=O)O; Phe(βR-OMe) = CO[C@H](c1ccccc1)[C@H](N)C(=O)O; NMeL = CN[C@@H](CC(C)C)C(=O)O
test readout: Caco-2 Int. Perm
Just the number.

Sample answers from the record:
compound | numeric result
CO[C@H](c1ccccc1)[C@@H]1NC(=O)[C@H](C)NC(=O)[C@H](C[C@@H](C)CO)N(C)C(=O)[C@H](Cc2cn(Cc3cn(CCOCCOCCOCCOCCn4cc(Cn5cc(C[C@H]6C(=O)N(C)[C@@H](C[C@@H](C)CO)C(=O)N[C@@H](C)C(=O)N[C@@H]([C@H](OC)c7ccccc7)C(=O)N[C@@H](C(C)C)C(=O)N(C)[C@@H](CC(C)C)C(=O)N[C@@H](C(C)C)C(=O)N6C)c6ccccc65)nn4)nn3)c3ccccc23)N(C)C(=O)[C@H](C(C)C)NC(=O)[C@H](CC(C)C)N(C)C(=O)[C@H](C(C)C)NC1=O [Compound 27] | 4.1
C#CCn1cc(C[C@H]2C(=O)N(C)[C@@H](C[C@@H](C)CO)C(=O)N[C@@H](C)C(=O)N[C@@H]([C@H](OC)c3ccccc3)C(=O)N[C@@H](C(C)C)C(=O)N(C)[C@@H](CC(C)C)C(=O)N[C@@H](C(C)C)C(=O)N2C)c2ccccc21 [Compound 26] (cyclo(A[Phe(βR-OMe)]V[NMeL]V[X2][NMeLeu(5-OH,4R)])) | 24.0

Moving on to another compound below.
**Q:** Entry COC(c1ccccc1)C1NC(=O)C(C)NC(=O)C(CC(C)CO)N(C)C(=O)C(Cc2cn(CC=CCn3cc(CC4NC(=O)C(C(C)C)NC(=O)C(CC(C)C)N(C)C(=O)C(C(C)C)NC(=O)C(C(OC)c5ccccc5)NC(=O)C(C)NC(=O)C(CC(C)CO)N(C)C4=O)c4ccccc43)c3ccccc23)NC(=O)C(C(C)C)NC(=O)C(CC(C)C)N(C)C(=O)C(C(C)C)NC1=O (stereo not drawn) [Compound 15] needs its Caco-2 Int. Perm filled in; supply it.
**A:** 2.0

====

test summary: Microsomal stability, human
Type: in vitro ADME
recorded conditions: clearance in microsomes
Description: The kinetics of compound degradation in liver microsomes is assessed in an assay with 1 µmol/l of compound and 0.5 mg/ml liver microsomes in a medium of 100 mM Tris-HCl pH 7.5, 6.5 mM MgCl2 and 1 mM NADPH at 37 °C. The reaction is stopped at multiple time points by adding acetonitrile. After centrifugation, the compound concentration is measured in the supernatants by high-performance liquid chromatography (HPLC) tandem mass spectrometry (MS/MS). […]
*1 amine or outer side, *2 acyl side, *3 side chain or, on linkers, in order; H or OH if unused. Where a SMILES comes first, the peptide text is derived from it. [ ]: non-standard residue; d: D form. X2 = C#CCn1cc(C[C@@H](C(=O)[*:2])N(C)[*:1])c2ccccc21; NMeTrp(1-Me) = CN[C@@H](Cc1cn(C)c2ccccc12)C(=O)O; NMeLeu(5-OH,4R) = CN[C@@H](C[C@@H](C)CO)C(=O)O; Phe(βR-OMe) = CO[C@H](c1ccccc1)[C@H](N)C(=O)O; Trp(1-Me) = Cn1cc(C[C@H](N)C(=O)O)c2ccccc21; NMeL = CN[C@@H](CC(C)C)C(=O)O; Pra = C#CC[C@H](N)C(=O)O
Listed below: Microsomal Stability Human values for each entry.

# annotated cases, reported Microsomal Stability Human shown
molecule | Microsomal Stability Human
C#CC[C@@H]1NC(=O)[C@H](CC(C)C)N(C)C(=O)[C@H](C(C)C)NC(=O)[C@H]([C@H](OC)c2ccccc2)NC(=O)[C@H](C)NC(=O)[C@H](C[C@@H](C)CO)N(C)C(=O)[C@H](Cc2cn(C)c3ccccc23)NC1=O [Compound 10] (cyclo(A[Phe(βR-OMe)]V[NMeL][Pra][Trp(1-Me)][NMeLeu(5-OH,4R)])) | > 88 %Qh
C#CC[C@@H]1NC(=O)[C@H](CC(C)C)N(C)C(=O)[C@H](C(C)C)NC(=O)[C@H]([C@H](OC)c2ccccc2)NC(=O)[C@H](C)NC(=O)[C@H](C[C@@H](C)CO)N(C)C(=O)[C@H](Cc2cn(C)c3ccccc23)N(C)C1=O [Compound 20] (cyclo(A[Phe(βR-OMe)]V[NMeL][Pra][NMeTrp(1-Me)][NMeLeu(5-OH,4R)])) | > 88 %Qh

**Q:** Tell me measured Microsomal Stability Human for C#CCn1cc(C[C@H]2C(=O)N(C)[C@@H](C[C@@H](C)CO)C(=O)N[C@@H](C)C(=O)N[C@@H]([C@H](OC)c3ccccc3)C(=O)N[C@@H](C(C)C)C(=O)N(C)[C@@H](CC(C)C)C(=O)N[C@@H](C(C)C)C(=O)N2C)c2ccccc21 [Compound 26] (cyclo(A[Phe(βR-OMe)]V[NMeL]V[X2][NMeLeu(5-OH,4R)])) please.
**A:** > 88 %Qh

====

Entries and their measured Papp B→A follow.
test summary: in vitro
recorded conditions: human, Caco-2, Caco-2 permeability P (B-A)
*1 amine or outer side, *2 acyl side, *3 side chain or, on linkers, in order; H or OH if unused. Where a SMILES comes first, the peptide text is derived from it. [ ]: non-standard residue; d: D form. Trp(1-(1,1-Me2-allyl)) = C=CC(C)(C)n1cc(C[C@H](N)C(=O)O)c2ccccc21; Ala(3R-Me,3-isobutenyl) = CC(C)=C[C@@H](C)[C@H](N)C(=O)O; X3 = C#CCOc1ccc([C@@H](OC)[C@H](N[*:1])C(=O)[*:2])cc1; NMeTrp(1-Me) = CN[C@@H](Cc1cn(C)c2ccccc12)C(=O)O; X1 = C#CCn1cc(C[C@H](N[*:1])C(=O)[*:2])c2ccccc21; NMeLeu(5-OH,4R) = CN[C@@H](C[C@@H](C)CO)C(=O)O; Phe(βR-OMe) = CO[C@H](c1ccccc1)[C@H](N)C(=O)O; Trp(1-Me) = Cn1cc(C[C@H](N)C(=O)O)c2ccccc21; NMeL = CN[C@@H](CC(C)C)C(=O)O; Pra = C#CC[C@H](N)C(=O)O
Field: numeric (×10⁻⁶ cm/s). Do not append units.

compound | Papp B→A (×10⁻⁶ cm/s)
CO[C@H](c1ccccc1)[C@@H]1NC(=O)[C@H](C)NC(=O)[C@H](C[C@@H](C)CO)N(C)C(=O)[C@H](Cc2cn(C)c3ccccc23)NC(=O)[C@H](Cc2cn(CCOCCOCCn3cc(C[C@@H]4NC(=O)[C@H](CC(C)C)N(C)C(=O)[C@H](C(C)C)NC(=O)[C@H]([C@H](OC)c5ccccc5)NC(=O)[C@H](C)NC(=O)[C@H](C[C@@H](C)CO)N(C)C(=O)[C@H](Cc5cn(C)c6ccccc56)NC4=O)nn3)nn2)NC(=O)[C@H](CC(C)C)N(C)C(=O)[C@H](C(C)C)NC1=O | 4.2
C#CCn1cc(C[C@@H]2NC(=O)[C@H](C(C)C)NC(=O)[C@H](CC(C)C)N(C)C(=O)[C@H](C(C)C)NC(=O)[C@H]([C@H](OC)c3ccccc3)NC(=O)[C@H](C)NC(=O)[C@H](C[C@@H](C)CO)N(C)C2=O)c2ccccc21 [Compound 5] (cyclo(A[Phe(βR-OMe)]V[NMeL]V[X1][NMeLeu(5-OH,4R)])) | 23
C#CC[C@@H]1NC(=O)[C@H](CC(C)C)N(C)C(=O)[C@H](C(C)C)NC(=O)[C@H]([C@H](OC)c2ccccc2)NC(=O)[C@H](C)NC(=O)[C@H](C[C@@H](C)CO)N(C)C(=O)[C@H](Cc2cn(C)c3ccccc23)N(C)C1=O [Compound 20] (cyclo(A[Phe(βR-OMe)]V[NMeL][Pra][NMeTrp(1-Me)][NMeLeu(5-OH,4R)])) | 28.5
C=CC(C)(C)n1cc(C[C@@H]2NC(=O)[C@H]([C@H](C)C=C(C)C)NC(=O)[C@H](CC(C)C)N(C)C(=O)[C@H](C(C)C)NC(=O)[C@H]([C@H](OC)c3ccccc3)NC(=O)[C@H](C)NC(=O)[C@H](C[C@@H](C)CO)N(C)C2=O)c2ccccc21 [dCymC] (cyclo([Trp(1-(1,1-Me2-allyl))][NMeLeu(5-OH,4R)]A[Phe(βR-OMe)]V[NMeL][Ala(3R-Me,3-isobutenyl)])) | 3.1
CCCCCn1cc(C[C@@H]2NC(=O)[C@H](CC(C)C)N(C)C(=O)[C@H](C(C)C)NC(=O)[C@H]([C@H](OC)c3ccccc3)NC(=O)[C@H](C)NC(=O)[C@H](C[C@@H](C)CO)N(C)C(=O)[C@H](Cc3cn(C)c4ccccc34)N(C)C2=O)nn1 | 22

Kindly review the next compound as well.
**Q:** Note down Papp B→A recorded for C#CCOc1ccc([C@@H](OC)[C@@H]2NC(=O)[C@H](C)NC(=O)[C@H](C[C@@H](C)CO)N(C)C(=O)[C@H](Cc3cn(C)c4ccccc34)NC(=O)[C@H](C(C)C)NC(=O)[C@H](CC(C)C)N(C)C(=O)[C@H](C(C)C)NC2=O)cc1 [SI-38] (cyclo(A[X3]V[NMeL]V[Trp(1-Me)][NMeLeu(5-OH,4R)]))
**A:** 18
